Each record here notes measured PBM E-score.
- subject.of.test: Stp1 (UniProt B3LFK1)
- Sequence: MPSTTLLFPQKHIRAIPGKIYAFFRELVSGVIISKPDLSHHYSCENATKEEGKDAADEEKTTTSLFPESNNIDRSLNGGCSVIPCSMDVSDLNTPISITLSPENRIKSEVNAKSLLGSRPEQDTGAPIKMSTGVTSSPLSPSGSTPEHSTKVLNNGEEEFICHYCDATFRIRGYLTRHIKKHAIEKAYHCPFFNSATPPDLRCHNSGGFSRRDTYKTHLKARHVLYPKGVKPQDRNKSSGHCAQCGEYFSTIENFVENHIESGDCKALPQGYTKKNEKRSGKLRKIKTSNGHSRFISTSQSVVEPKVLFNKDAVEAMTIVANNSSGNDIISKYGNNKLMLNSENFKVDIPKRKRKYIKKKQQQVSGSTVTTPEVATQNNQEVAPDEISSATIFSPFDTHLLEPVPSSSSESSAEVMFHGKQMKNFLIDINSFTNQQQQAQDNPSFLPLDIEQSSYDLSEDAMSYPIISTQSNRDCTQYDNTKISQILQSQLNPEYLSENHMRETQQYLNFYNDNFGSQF
- test.details: PBM E-score (8-mer binding enrichment) (E-score (-0.5 to 0.5)); higher = stronger / more preferred TF binding
- settings: protein concentration: 200 nM; construct: GST-full length
Over roughly 33,000 sequences, “E-score (-0.5 to 0.5)” has its median near -0.016; the highest 2% begin near 0.32. The full list was thinned out, with the highest values kept by preference.
quantity.kind: PBM E-score

[[record]]
macromolecule_sequence = "GAATAGTC"
reported_measurement = -0.205

[[record]]
macromolecule_sequence = "CGCCACAC"
reported_measurement = 0.324

[[record]]
macromolecule_sequence = "AGCGCCCG"
reported_measurement = -0.00709

[[record]]
macromolecule_sequence = "ATGACTGA"
reported_measurement = -0.164

[[record]]
macromolecule_sequence = "CGCGCCCA"
reported_measurement = 0.213

[[record]]
macromolecule_sequence = "AGGCTAAG"
reported_measurement = -0.0187

[[record]]
macromolecule_sequence = "TAAGGCGA"
reported_measurement = 0.315

[[record]]
macromolecule_sequence = "AGCGCCCT"
reported_measurement = 0.319

[[record]]
macromolecule_sequence = "TCCGGCGA"
reported_measurement = 0.1

[[record]]
macromolecule_sequence = "ACCGTGCG"
reported_measurement = 0.371

[[record]]
macromolecule_sequence = "CCGCACAG"
reported_measurement = 0.201

[[record]]
macromolecule_sequence = "ACTGGCTC"
reported_measurement = -0.267

[[record]]
macromolecule_sequence = "GGCGCCCA"
reported_measurement = 0.311

[[record]]
macromolecule_sequence = "GCTTGAAC"
reported_measurement = 0.111

[[record]]
macromolecule_sequence = "CGAGTCGA"
reported_measurement = -0.00477

[[record]]
macromolecule_sequence = "ATTTTGAA"
reported_measurement = 0.277

[[record]]
macromolecule_sequence = "AGGCACAC"
reported_measurement = 0.0169

[[record]]
macromolecule_sequence = "TACCCTAA"
reported_measurement = -0.0225

[[record]]
macromolecule_sequence = "TACGGCGA"
reported_measurement = 0.473

